Field: Primary assay EC50 (cAMP), GLP-1R n1. Provide a value for each of the binders that follow.
# Test system: GLP-1 receptor (GLP-1R) (human, UniProt P43220 24-463)
# Assay info: cell-based or functional assay
Starred links: 1 amine or outer side, 2 acyl side, 3 side chain; linkers in the order of their positions; H or OH if unused. Non-standard residues stand in square brackets, D forms with d. Groups on a side chain read outwards from the residue. Primed or numbered codes have the meaning given here. No end group written: not given here. *: point of attachment. Dodecylbenzoate = dodecylbenzoyl lipid group; γGlu = O=C(O)[C@H](CCC(=O)[*:2])N[*:1]; Stearoyl = CCCCCCCCCCCCCCCCCC(=O)*; αMeF = C[C@](N)(Cc1ccccc1)C(=O)O; αMeK = C[C@](N)(CCCCN)C(=O)O; Lauroyl = CCCCCCCCCCCC(=O)*; αMeS = C[C@](N)(CO)C(=O)O; PEG2′ = not defined here; Aib = CC(C)(N)C(=O)O; Ahx = NCCCCCC(=O)O
Number in pM, nothing else.

Can you look up the measured Primary assay EC50 (cAMP), GLP-1R n1 of H[Aib]EGS[αMeF]TSDV[αMeS]S[αMeF]LEGEAAK([PEG2′-PEG2′-Stearoyl])E[αMeF]IA[αMeF]VV[αMeK]GG-NH2 [SEQ ID NO 162] for me?
53

Can you look up the measured Primary assay EC50 (cAMP), GLP-1R n1 of H[Aib]EGS[αMeF]TSDV[αMeS]S[αMeF]LEGEAA[αMeK]E[αMeF]IA[αMeF]VVK([Ahx-Ahx-Ahx-Dodecylbenzoate])GG-NH2 [SEQ ID NO 178] for me?
5

Can you look up the measured Primary assay EC50 (cAMP), GLP-1R n1 of H[Aib]EGS[αMeF]TSDV[αMeS]S[αMeF]LEGEAA[αMeK]E[αMeF]IA[αMeF]VVK([PEG2′-PEG2′-Lauroyl])GG-NH2 [SEQ ID NO 171] for me?
2.5

Can you look up the measured Primary assay EC50 (cAMP), GLP-1R n1 of H[Aib]EGS[αMeF]TSDV[αMeS]S[αMeF]LEGEAA[αMeK]E[αMeF]IA[αMeF]VVK([PEG2′-PEG2′-Stearoyl])GG-NH2 [SEQ ID NO 198] for me?
41

Can you look up the measured Primary assay EC50 (cAMP), GLP-1R n1 of H[Aib]EGS[αMeF]TSDV[αMeS]S[αMeF]LEGEAAK([PEG2′-PEG2′-PEG2′-Stearoyl])E[αMeF]IA[αMeF]VV[αMeK]GG-NH2 [SEQ ID NO 154] for me?
2.8

Can you look up the measured Primary assay EC50 (cAMP), GLP-1R n1 of H[Aib]EGS[αMeF]TSDV[αMeS]S[αMeF]LEGEAAK([PEG2′-Stearoyl])E[αMeF]IA[αMeF]VV[αMeK]GG-NH2 [SEQ ID NO 161] for me?
160

Can you look up the measured Primary assay EC50 (cAMP), GLP-1R n1 of H[Aib]EGS[αMeF]TSDV[αMeS]S[αMeF]LEGEAA[αMeK]E[αMeF]IA[αMeF]VVK([γGlu-γGlu-Dodecylbenzoate])GG-NH2 [SEQ ID NO 174] for me?
22

Can you look up the measured Primary assay EC50 (cAMP), GLP-1R n1 of H[Aib]EGS[αMeF]TSDV[αMeS]S[αMeF]LEGEAA[αMeK]E[αMeF]IA[αMeF]VVK([γGlu-Dodecylbenzoate])GG-NH2 [SEQ ID NO 173] for me?
21

Can you look up the measured Primary assay EC50 (cAMP), GLP-1R n1 of H[Aib]EGS[αMeF]TSDV[αMeS]S[αMeF]LEGEAA[αMeK]E[αMeF]IA[αMeF]VVK([PEG2′-Dodecylbenzoate])GG-NH2 [SEQ ID NO 179] for me?
11

Can you look up the measured Primary assay EC50 (cAMP), GLP-1R n1 of H[Aib]EGS[αMeF]TSDV[αMeS]S[αMeF]LEGEAA[αMeK]E[αMeF]IA[αMeF]VVK([PEG2′-PEG2′-PEG2′-Stearoyl])GG-NH2 [SEQ ID NO 190] for me?
9.7

Can you look up the measured Primary assay EC50 (cAMP), GLP-1R n1 of H[Aib]EGS[αMeF]TSDV[αMeS]S[αMeF]LEGEAA[αMeK]E[αMeF]IA[αMeF]VVK([PEG2′-Stearoyl])GG-NH2 [SEQ ID NO 188] for me?
170

Can you look up the measured Primary assay EC50 (cAMP), GLP-1R n1 of H[Aib]EGS[αMeF]TSDV[αMeS]S[αMeF]LEGEAA[αMeK]E[αMeF]IA[αMeF]VVK([PEG2′-Lauroyl])GG-NH2 [SEQ ID NO 170] for me?
8

Can you look up the measured Primary assay EC50 (cAMP), GLP-1R n1 of H[Aib]EGS[αMeF]TSDV[αMeS]S[αMeF]LEGEAA[αMeK]E[αMeF]IA[αMeF]VVK([PEG2′-Stearoyl])GG-NH2 [SEQ ID NO 197] for me?
120

Can you look up the measured Primary assay EC50 (cAMP), GLP-1R n1 of H[Aib]EGS[αMeF]TSDV[αMeS]S[αMeF]LEGEAA[αMeK]E[αMeF]IA[αMeF]VVK([γGlu-γGlu-γGlu-Dodecylbenzoate])GG-NH2 [SEQ ID NO 175] for me?
23

Can you look up the measured Primary assay EC50 (cAMP), GLP-1R n1 of H[Aib]EGS[αMeF]TSDV[αMeS]S[αMeF]LEGEAA[αMeK]E[αMeF]IA[αMeF]VVK([PEG2′-PEG2′-Stearoyl])GG-NH2 [SEQ ID NO 189] for me?
30

Can you look up the measured Primary assay EC50 (cAMP), GLP-1R n1 of H[Aib]EGS[αMeF]TSDV[αMeS]S[αMeF]LEGEAA[αMeK]E[αMeF]IA[αMeF]VVK([Ahx-Dodecylbenzoate])GG-NH2 [SEQ ID NO 176] for me?
23

Can you look up the measured Primary assay EC50 (cAMP), GLP-1R n1 of H[Aib]EGS[αMeF]TSDV[αMeS]S[αMeF]LEGEAAK([PEG2′-PEG2′-PEG2′-Stearoyl])E[αMeF]IA[αMeF]VV[αMeK]GG-NH2 [SEQ ID NO 163] for me?
63

Can you look up the measured Primary assay EC50 (cAMP), GLP-1R n1 of H[Aib]EGS[αMeF]TSDV[αMeS]S[αMeF]LEGEAA[αMeK]E[αMeF]IA[αMeF]VVK([PEG2′-PEG2′-Dodecylbenzoate])GG-NH2 [SEQ ID NO 180] for me?
3.2

Can you look up the measured Primary assay EC50 (cAMP), GLP-1R n1 of H[Aib]EGS[αMeF]TSDV[αMeS]S[αMeF]LEGEAA[αMeK]E[αMeF]IA[αMeF]VVK([PEG2′-PEG2′-PEG2′-Dodecylbenzoate])GG-NH2 [SEQ ID NO 181] for me?
2.1
